tested on: HeLa Kyoto; assay: solubility in G1/S (NP-40 vs SDS abundance) (log2 ratio); higher = more soluble; settings: cell cycle stage: G1/S
Reported solubility in G1/S (log2) is given for each of the following sequences.

>  <SEQUENCE DATA>
MQAGKPILYSYFRSSCSWRVRIALALKGIDYKTVPINLIKDRGQQFSKDFQALNPMKQVPTLKIDGITIHQSLAIIEYLEEMRPTPRLLPQDPKKRASVRMISDLIAGGIQPLQNLSVLKQVGEEMQLTWAQNAITCGFNALEQILQSTAGIYCVGDEVTMADLCLVPQVANAERFKVDLTPYPTISSINKRLLVLEAFQVSHPCRQPDTPTELRA [GSTZ1]

>  <solubility in G1/S (log2)>
0.447

$$$$
>  <SEQUENCE DATA>
MEAEESEKAATEQEPLEGTEQTLDAEEEQEESEEAACGSKKRVVPGIVYLGHIPPRFRPLHVRNLLSAYGEVGRVFFQAEDRFVRRKKKAAAAAGGKKRSYTKDYTEGWVEFRDKRIAKRVAASLHNTPMGARRRSPFRYDLWNLKYLHRFTWSHLSEHLAFERQVRRQRLRAEVAQAKRETDFYLQSVERGQRFLAADGDPARPDGSWTFAQRPTEQELRARKAARPGGRERARLATAQDKARSNKGLLARIFGAPPPSESMEGPSLVRDS [ABT1]

>  <solubility in G1/S (log2)>
-0.95

$$$$
>  <SEQUENCE DATA>
MGTKAQVERKLLCLFILAILLCSLALGSVTVHSSEPEVRIPENNPVKLSCAYSGFSSPRVEWKFDQGDTTRLVCYNNKITASYEDRVTFLPTGITFKSVTREDTGTYTCMVSEEGGNSYGEVKVKLIVLVPPSKPTVNIPSSATIGNRAVLTCSEQDGSPPSEYTWFKDGIVMPTNPKSTRAFSNSSYVLNPTTGELVFDPLSASDTGEYSCEARNGYGTPMTSNAVRMEAVERNVGVIVAAVLVTLILLGILVFGIWFAYSRGHFDRTKKGTSSKKVIYSQPSARSEGEFKQTSSFLV [F11R]

>  <solubility in G1/S (log2)>
0.284

$$$$
>  <SEQUENCE DATA>
MARKSNLPVLLVPFLLCQALVRCSSPLPLVVNTWPFKNATEAAWRALASGGSALDAVESGCAMCEREQCDGSVGFGGSPDELGETTLDAMIMDGTTMDVGAVGDLRRIKNAIGVARKVLEHTTHTLLVGESATTFAQSMGFINEDLSTTASQALHSDWLARNCQPNYWRNVIPDPSKYCGPYKPPGILKQDIPIHKETEDDRGHDTIGMVVIHKTGHIAAGTSTNGIKFKIHGRVGDSPIPGAGAYADDTAGAAAATGNGDILMRFLPSYQAVEYMRRGEDPTIACQKVISRIQKHFPEFFGAVICANVTGSYGAACNKLSTFTQFSFMVYNSEKNQPTEEKVDCI

>  <solubility in G1/S (log2)>
0.0983

$$$$
>  <SEQUENCE DATA>
MGKRDNRVAYMNPIAMARSRGPIQSSGPTIQDYLNRPRPTWEEVKEQLEKKKKGSKALAEFEEKMNENWKKELEKHREKLLSGSESSSKKRQRKKKEKKKSGRYSSSSSSSSDSSSSSSDSEDEDKKQGKRRKKKKNRSHKSSESSMSETESDSKDSLKKKKKSKDGTEKEKDIKGLSKKRKMYSEDKPLSSESLSESEYIEEVRAKKKKSSEEREKATEKTKKKKKHKKHSKKKKKKAASSSPDSP [FAM133B]

>  <solubility in G1/S (log2)>
-1.16

$$$$
>  <SEQUENCE DATA>
MAELGEADEAELQRLVAAEQQKAQFTAQVHHFMELCWDKCVEKPGNRLDSRTENCLSSCVDRFIDTTLAITSRFAQIVQKGGQ [TIMM8B]

>  <solubility in G1/S (log2)>
-0.938

$$$$
>  <SEQUENCE DATA>
MGLTVSALFSRIFGKKQMRILMVGLDAAGKTTILYKLKLGEIVTTIPTIGFNVETVEYKNICFTVWDVGGQDKIRPLWRHYFQNTQGLIFVVDSNDRERVQESADELQKMLQEDELRDAVLLVFANKQDMPNAMPVSELTDKLGLQHLRSRTWYVQATCATQGTGLYDGLDWLSHELSKR [ARF5]

>  <solubility in G1/S (log2)>
-0.196

$$$$
>  <SEQUENCE DATA>
MPRDNMASLIQRIARQACLTFRGSGGGRGASDRDAASGPEAPMQPGFPENLSKLKSLLTQLRAEDLNIAPRKATLQPLPPNLPPVTYMHIYETDGFSLGVFLLKSGTSIPLHDHPGMHGMLKVLYGTVRISCMDKLDAGGGQRPRALPPEQQFEPPLQPREREAVRPGVLRSRAEYTEASGPCILTPHRDNLHQIDAVEGPAAFLDILAPPYDPDDGRDCHYYRVLEPVRPKEASSSACDLPREVWLLETPQADDFWCEGEPYPGPKVFP [ADO]

>  <solubility in G1/S (log2)>
0.474

$$$$
>  <SEQUENCE DATA>
MTSLTQRSSGLVQRRTEASRNAADKERAAGGGAGSSEDDAQSRRDEQDDDDKGDSKETRLTLMEEVLLLGLKDREGYTSFWNDCISSGLRGCMLIELALRGRLQLEACGMRRKSLLTRKVICKSDAPTGDVLLDEALKHVKETQPPETVQNWIELLSGETWNPLKLHYQLRNVRERLAKNLVEKGVLTTEKQNFLLFDMTTHPLTNNNIKQRLIKKVQEAVLDKWVNDPHRMDRRLLALIYLAHASDVLENAFAPLLDEQYDLATKRVRQLLDLDPEVECLKANTNEVLWAVVAAFTK [GOLPH3]

>  <solubility in G1/S (log2)>
0.434

$$$$
>  <SEQUENCE DATA>
MPKGGRKGGHKGRARQYTSPEEIDAQLQAEKQKAREEEEQKEGGDGAAGDPKKEKKSLDSDESEDEEDDYQQKRKGVEGLIDIENPNRVAQTTKKVTQLDLDGPKELSRREREEIEKQKAKERYMKMHLAGKTEQAKADLARLAIIRKQREEAARKKEEERKAKDDATLSGKRMQSLSLNK [PDAP1]

>  <solubility in G1/S (log2)>
0.734

$$$$
>  <SEQUENCE DATA>
MAAPVDLELKKAFTELQAKVIDTQQKVKLADIQIEQLNRTKKHAHLTDTEIMTLVDETNMYEGVGRMFILQSKEAIHSQLLEKQKIAEEKIKELEQKKSYLERSVKEAEDNIREMLMARRAQ [PFDN1]

>  <solubility in G1/S (log2)>
0.242

$$$$
>  <SEQUENCE DATA>
MSSIGTGYDLSASTFSPDGRVFQVEYAMKAVENSSTAIGIRCKDGVVFGVEKLVLSKLYEEGSNKRLFNVDRHVGMAVAGLLADARSLADIAREEASNFRSNFGYNIPLKHLADRVAMYVHAYTLYSAVRPFGCSFMLGSYSVNDGAQLYMIDPSGVSYGYWGCAIGKARQAAKTEIEKLQMKEMTCRDIVKEVAKIIYIVHDEVKDKAFELELSWVGELTNGRHEIVPKDIREEAEKYAKESLKEEDESDDDNM [PSMA3]

>  <solubility in G1/S (log2)>
0.204

$$$$

###

system: HeLa Kyoto; experiment: melting temperature (median over replicates), in situ; higher = more thermally stable; conditions: cell cycle stage: mitosis
MEASUREMENT TYPE: melting temperature (°C)

>  <SEQUENCE DATA>
MAPRLCSISVTARRLLGGPGPRAGDVASAAAARFYSKDNEGSWFRSLFVHKVDPRKDAHSTLLSKKETSNLYKIQFHNVKPEYLDAYNSLTEAVLPKLHLDEDYPCSLVGNWNTWYGEQDQAVHLWRFSGGYPALMDCMNKLKNNKEYLEFRRERSQMLLSRRNQLLLEFSFWNEPQPRMGPNIYELRTYKLKPGTMIEWGNNWARAIKYRQENQEAVGGFFSQIGELYVVHHLWAYKDLQSREETRNAAWRKRGWDENVYYTVPLVRHMESRIMIPLKISPLQ [NIPSNAP1]

>  <TARGET>
HeLa Kyoto

>  <EXPERIMENTAL VALUE>
54.3

$$$$
>  <SEQUENCE DATA>
MSAQAQMRALLDQLMGTARDGDETRQRVKFTDDRVCKSHLLDCCPHDILAGTRMDLGECTKIHDLALRADYEIASKERDLFFELDAMDHLESFIAECDRRTELAKKRLAETQEEISAEVSAKAEKVHELNEEIGKLLAKAEQLGAEGNVDESQKILMEVEKVRAKKKEAEEEYRNSMPASSFQQQKLRVCEVCSAYLGLHDNDRRLADHFGGKLHLGFIQIREKLDQLRKTVAEKQEKRNQDRLRRREEREREERLSRRSGSRTRDRRRSRSRDRRRRRSRSTSRERRKLSRSRSRDRHRRHRSRSRSHSRGHRRASRDRSAKYKFSRERASREESWESGRSERGPPDWRLESSNGKMASRRSEEKEAGEI [LUC7L]

>  <TARGET>
HeLa Kyoto

>  <EXPERIMENTAL VALUE>
51.4

$$$$
>  <SEQUENCE DATA>
MEADSPAGPGAPEPLAEGAAAEFSSLLRRIKGKLFTWNILKTIALGQMLSLCICGTAITSQYLAERYKVNTPMLQSFINYCLLFLIYTVMLAFRSGSDNLLVILKRKWWKYILLGLADVEANYVIVRAYQYTTLTSVQLLDCFGIPVLMALSWFILHARYRVIHFIAVAVCLLGVGTMVGADILAGREDNSGSDVLIGDILVLLGASLYAISNVCEEYIVKKLSRQEFLGMVGLFGTIISGIQLLIVEYKDIASIHWDWKIALLFVAFALCMFCLYSFMPLVIKVTSATSVNLGILTADLYSLFVGLFLFGYKFSGLYILSFTVIMVGFILYCSTPTRTAEPAESSVPPVTSIGIDNLGLKLEENLQETHSAVL [SLC35F2]

>  <TARGET>
HeLa Kyoto

>  <EXPERIMENTAL VALUE>
56.1

$$$$
>  <SEQUENCE DATA>
MDRFVWTSGLLEINETLVIQQRGVRIYDGEEKIKFDAGTLLLSTHRLIWRDQKNHECCMAILLSQIVFIEEQAAGIGKSAKIVVHLHPAPPNKEPGPFQSSKNSYIKLSFKEHGQIEFYRRLSEEMTQRRWENMPVSQSLQTNRGPQPGRIRAVGIVGIERKLEEKRKETDKNISEAFEDLSKLMIKAKEMVELSKSIANKIKDKQGDITEDETIRFKSYLLSMGIANPVTRETYGSGTQYHMQLAKQLAGILQVPLEERGGIMSLTEVYCLVNRARGMELLSPEDLVNACKMLEALKLPLRLRVFDSGVMVIELQSHKEEEMVASALETVSEKGSLTSEEFAKLVGMSVLLAKERLLLAEKMGHLCRDDSVEGLRFYPNLFMTQS [VPS36]

>  <TARGET>
HeLa Kyoto

>  <EXPERIMENTAL VALUE>
51

$$$$
>  <SEQUENCE DATA>
MHRRGVGAGAIAKKKLAEAKYKERGTVLAEDQLAQMSKQLDMFKTNLEEFASKHKQEIRKNPEFRVQFQDMCATIGVDPLASGKGFWSEMLGVGDFYYELGVQIIEVCLALKHRNGGLITLEELHQQVLKGRGKFAQDVSQDDLIRAIKKLKALGTGFGIIPVGGTYLIQSVPAELNMDHTVVLQLAEKNGYVTVSEIKASLKWETERARQVLEHLLKEGLAWLDLQAPGEAHYWLPALFTDLYSQEITAEEAREALP [SNF8]

>  <TARGET>
HeLa Kyoto

>  <EXPERIMENTAL VALUE>
51.5

$$$$
>  <SEQUENCE DATA>
MVLLESEQFLTELTRLFQKCRTSGSVYITLKKYDGRTKPIPKKGTVEGFEPADNKCLLRATDGKKKISTVVSSKEVNKFQMAYSNLLRANMDGLKKRDKKNKTKKTKAAAAAAAAAPAAAATAPTTAATTAATAAQ [SRP14]

>  <TARGET>
HeLa Kyoto

>  <EXPERIMENTAL VALUE>
52.6

$$$$
>  <SEQUENCE DATA>
MALGLKCFRMVHPTFRNYLAASIRPVSEVTLKTVHERQHGHRQYMAYSAVPVRHFATKKAKAKGKGQSQTRVNINAALVEDIINLEEVNEEMKSVIEALKDNFNKTLNIRTSPGSLDKIAVVTADGKLALNQISQISMKSPQLILVNMASFPECTAAAIKAIRESGMNLNPEVEGTLIRVPIPQVTREHREMLVKLAKQNTNKAKDSLRKVRTNSMNKLKKSKDTVSEDTIRLIEKQISQMADDTVAELDRHLAVKTKELLG [MRRF]

>  <TARGET>
HeLa Kyoto

>  <EXPERIMENTAL VALUE>
51.3

$$$$
>  <SEQUENCE DATA>
MLRPAGLWRLCRRPWAARVPAENLGRREVTSGVSPRGSTSPRTLNIFDRDLKRKQKNWAARQPEPTKFDYLKEEVGSRIADRVYDIPRNFPLALDLGCGRGYIAQYLNKETIGKFFQADIAENALKNSSETEIPTVSVLADEEFLPFKENTFDLVVSSLSLHWVNDLPRALEQIHYILKPDGVFIGAMFGGDTLYELRCSLQLAETEREGGFSPHISPFTAVNDLGHLLGRAGFNTLTVDTDEIQVNYPGMFELMEDLQGMGESNCAWNRKALLHRDTMLAAAAVYREMYRNEDGSVPATYQIYYMIGWKYHESQARPAERGSATVSFGELGKINNLMPPGKKSQ [NDUFAF5]

>  <TARGET>
HeLa Kyoto

>  <EXPERIMENTAL VALUE>
53.4

$$$$
>  <SEQUENCE DATA>
MYTLLSGLYKYMFQKDEYCILILGLDNAGKTTFLEQSKTRFNKNYKGMSLSKITTTVGLNIGTVDVGKARLMFWDLGGQEELQSLWDKYYAECHGVIYVIDSTDEERLAESKQAFEKVVTSEALCGVPVLVLANKQDVETCLSIPDIKTAFSDCTSKIGRRDCLTQACSALTGKGVREGIEWMVKCVVRNVHRPPRQRDIT [ARFRP1]

>  <TARGET>
HeLa Kyoto

>  <EXPERIMENTAL VALUE>
52.8

$$$$
>  <SEQUENCE DATA>
MAAAVSSVVRRVEELGDLAQAHIQQLSEAAGEDDHFLIRASAALEKLKLLCGEEKECSNPSNLLELYTQAILDMTYFEENKLVDEDFPEDSSSQKVKELISFLSEPEILVKENNMHPKHCNLLGDELLECLSWRRGALLYMYCHSLTKRREWLLRKSSLLKKYLLDGISYLLQMLNYRCPIQLNEGVSFQDLDTAKLLSAGIFSDIHLLAMMYSGEMCYWGSKYCADQQPENHEVDTSVSGAGCTTYKEPLDFREVGEKILKKYVSVCEGPLKEQEWNTTNAKQILNFFHHRCN [C5ORF51]

>  <TARGET>
HeLa Kyoto

>  <EXPERIMENTAL VALUE>
49.9

$$$$
